Target: human αVβ6 (Homo sapiens, UniProt P06756+P18564)
Sequence (P06756 31-992 limits assumed): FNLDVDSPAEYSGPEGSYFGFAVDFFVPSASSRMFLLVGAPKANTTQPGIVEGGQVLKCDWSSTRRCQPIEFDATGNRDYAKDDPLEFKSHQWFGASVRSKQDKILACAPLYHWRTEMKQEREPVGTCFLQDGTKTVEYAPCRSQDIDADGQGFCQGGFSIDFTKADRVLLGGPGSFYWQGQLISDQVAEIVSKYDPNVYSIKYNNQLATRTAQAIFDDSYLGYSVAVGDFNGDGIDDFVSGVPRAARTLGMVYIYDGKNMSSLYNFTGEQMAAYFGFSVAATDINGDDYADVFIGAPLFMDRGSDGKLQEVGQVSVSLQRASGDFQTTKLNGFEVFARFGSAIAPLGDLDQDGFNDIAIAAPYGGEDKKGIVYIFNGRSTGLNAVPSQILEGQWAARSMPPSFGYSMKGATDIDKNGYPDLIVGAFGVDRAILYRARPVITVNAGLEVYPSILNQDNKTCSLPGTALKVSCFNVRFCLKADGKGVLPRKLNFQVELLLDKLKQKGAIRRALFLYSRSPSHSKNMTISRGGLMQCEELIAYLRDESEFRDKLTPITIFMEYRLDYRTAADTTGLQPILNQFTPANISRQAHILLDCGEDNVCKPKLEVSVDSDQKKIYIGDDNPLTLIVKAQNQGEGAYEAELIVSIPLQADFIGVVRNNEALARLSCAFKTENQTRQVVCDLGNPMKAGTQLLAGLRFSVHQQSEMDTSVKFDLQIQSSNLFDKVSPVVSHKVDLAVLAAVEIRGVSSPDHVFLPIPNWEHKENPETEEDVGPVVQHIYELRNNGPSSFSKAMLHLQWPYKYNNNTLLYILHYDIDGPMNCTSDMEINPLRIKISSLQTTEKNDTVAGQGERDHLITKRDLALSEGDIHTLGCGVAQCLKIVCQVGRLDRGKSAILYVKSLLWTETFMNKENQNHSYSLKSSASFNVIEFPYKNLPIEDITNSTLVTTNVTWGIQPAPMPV
Sequence (P18564 22-707 limits assumed): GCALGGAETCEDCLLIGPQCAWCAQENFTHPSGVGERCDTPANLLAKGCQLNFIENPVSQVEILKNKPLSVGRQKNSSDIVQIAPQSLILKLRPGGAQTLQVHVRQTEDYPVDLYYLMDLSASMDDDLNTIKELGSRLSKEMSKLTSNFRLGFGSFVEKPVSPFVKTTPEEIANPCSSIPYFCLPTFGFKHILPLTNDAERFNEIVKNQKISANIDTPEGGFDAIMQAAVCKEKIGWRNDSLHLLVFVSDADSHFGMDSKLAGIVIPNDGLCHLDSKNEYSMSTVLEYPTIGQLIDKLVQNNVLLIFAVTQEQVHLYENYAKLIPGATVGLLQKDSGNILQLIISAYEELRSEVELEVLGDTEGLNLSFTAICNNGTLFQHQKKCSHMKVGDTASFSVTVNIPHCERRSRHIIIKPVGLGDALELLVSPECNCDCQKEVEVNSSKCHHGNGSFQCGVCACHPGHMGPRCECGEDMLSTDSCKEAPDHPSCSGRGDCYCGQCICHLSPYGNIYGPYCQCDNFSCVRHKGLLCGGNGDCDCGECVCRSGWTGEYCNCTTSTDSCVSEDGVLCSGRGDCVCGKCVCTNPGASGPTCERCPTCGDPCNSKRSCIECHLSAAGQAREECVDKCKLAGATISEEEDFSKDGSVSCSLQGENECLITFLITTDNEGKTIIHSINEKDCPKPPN
Test: human αVβ6 HTRF binding assay
Details: alternatively SPA-based assay
From the text: All binding assays used the HTRF (homogeneous time resolved fluorescence) technology from Cisbio International, therefore all assays are described as HTRF binding assays. The assay results for the Examples are listed above together with the characterization data. The HTRF binding assays are established for the following integrins: human αVβ6, human αVβ1, human αVβ3, human αVβ5, and human αVβ8. […]
Assay Metric: IC50 (nM)

Worked examples, 3 compounds total:
Compound: CCOC(=O)C[C@H](NC(=O)C1CC2(C1)CN(CCc1ccc3c(n1)NCCC3)C2)c1cc(Cl)cc(Cl)c1 [Example 49]
Tested Target: human αVβ6 (Homo sapiens, UniProt P06756+P18564)
IC50 / nM: 480
--
Compound: O=C(O)C[C@@H](c1ccc2c(c1)CCO2)N1CC(CCCCc2ccc3c(n2)NCCC3)C1=O (stereo partly drawn) [Example 110]
Tested Target: human αVβ6 (Homo sapiens, UniProt P06756+P18564)
IC50 / nM: 1.4
--
Compound: O=C(O)C[C@@H](c1cc(Cl)cc(Cl)c1)N1CC(CCCCc2ccc3c(n2)NCCC3)C1=O (stereo partly drawn) [Example 109]
Tested Target: human αVβ6 (Homo sapiens, UniProt P06756+P18564)
IC50 / nM: 0.89

1. O=C(N[C@@H](CNC(=O)C1CC2(C1)CN(CCc1ccc3c(n1)NCCC3)C2)C(=O)O)OCc1ccccc1 [Example 41]
2. COc1ccc(C(CC(=O)O)C2CC3(CC(CCc4ccc5c(n4)NCCC5)C3)C2)cn1 (stereo not drawn) [Example 141]
3. Cc1cc(C)c(S(=O)(=O)N[C@@H](CN2CC(CCCc3ccc4c(n3)NCCC4)C2=O)C(=O)O)c(C)c1 (single isomer, unassigned) [Example 186]
4. CC1(CCCCc2ccc3c(n2)NCCC3)CN([C@@H](CC(=O)O)c2cc(F)cc(F)c2)C1 [Example 160]
Query block: Sort low-to-high on IC50, please. Put the labels in the requested order and write them down.
Result block: 3, 4, 2, 1
(3: 0.61 nM, 4: 1.3 nM, 2: 2.9 nM, 1: 9.3 nM)

###

Biological target: human αVβ6 (Homo sapiens, UniProt P06756+P18564)
Assay: human αVβ6 HTRF binding assay
Details: alternatively SPA-based assay
Assay Metric: IC50 (nM)

Compound: COc1ccc(C(NC(=O)C2CC(CCc3ccc4c(n3)NCCC4)C2)C(C)(C)C(=O)O)cn1 (centres unmarked) [Example 192]
Numeric Readout: 4400

I. COc1ccc(C(CC(=O)O)C2CC(CCCCc3ccc4c(n3)NCCC4)C2)cn1 (single isomer, unassigned; diastereomer b) [Example 140]
II. O=C(O)CC(c1cnc2ccccc2c1)C1CC2(C1)CN(CCc1ccc3c(n1)NCCC3)C2 (centres unmarked)
Query block: Could you kindly indicate whether I or II has the higher IC50 value? Give the chosen item's label as your response.
Result block: I

1. Cc1cc(C)c(S(=O)(=O)N[C@@H](CNC(=O)[C@H]2C[C@@H](Cc3ccc4c(n3)NCCC4)C2)C(=O)O)c(C)c1
2. O=C(O)C[C@H](NC(=O)[C@H]1C[C@@H](CCc2ccc3c(n2)NCCC3)C1)c1cnc2ccccc2c1
3. COc1ncc([C@H](CC(=O)O)N2CC(CCCCc3ccc4c(n3)NCCC4)C2=O)cn1 (some centres unmarked) [Example 70]
4. COc1ccc([C@H](CC(=O)O)N2CC(CCCCc3ccc4c(n3)NCCC4)C2=O)cn1 (some centres unmarked) [Example 68]
5. Cc1cc(C)c(S(=O)(=O)N[C@@H](CNC(=O)[C@H]2C[C@H](CCc3ccc4c(n3)NCCC4)C2)C(=O)O)c(C)c1
Query block: Parameters: sort_field (IC50), sort_dir (desc). To answer, write out the labels according to the requested order.
Result block: 3, 1, 4, 2, 5

1. O=C(O)C[C@@H](c1cnc2ccccc2c1)N1CC(CCCCc2ccc3c(n2)NCCC3)C1=O (some centres unmarked) [Example 107]
2. COc1ccc([C@H](CC(=O)O)NC(=O)[C@H]2C[C@H](CCc3ccc4c(n3)NCCC4)C2)cc1F
Query block: Select the item whose IC50 value is smaller, choosing between 1 and 2 . Indicate your choice by writing its label.
Result block: 2
(2: 0.52 nM, 1: 2.7 nM)

###

Target: human αVβ8 (Homo sapiens, UniProt P06756+P26012)
Sequence (P26012 43-684 limits assumed, one chain of several): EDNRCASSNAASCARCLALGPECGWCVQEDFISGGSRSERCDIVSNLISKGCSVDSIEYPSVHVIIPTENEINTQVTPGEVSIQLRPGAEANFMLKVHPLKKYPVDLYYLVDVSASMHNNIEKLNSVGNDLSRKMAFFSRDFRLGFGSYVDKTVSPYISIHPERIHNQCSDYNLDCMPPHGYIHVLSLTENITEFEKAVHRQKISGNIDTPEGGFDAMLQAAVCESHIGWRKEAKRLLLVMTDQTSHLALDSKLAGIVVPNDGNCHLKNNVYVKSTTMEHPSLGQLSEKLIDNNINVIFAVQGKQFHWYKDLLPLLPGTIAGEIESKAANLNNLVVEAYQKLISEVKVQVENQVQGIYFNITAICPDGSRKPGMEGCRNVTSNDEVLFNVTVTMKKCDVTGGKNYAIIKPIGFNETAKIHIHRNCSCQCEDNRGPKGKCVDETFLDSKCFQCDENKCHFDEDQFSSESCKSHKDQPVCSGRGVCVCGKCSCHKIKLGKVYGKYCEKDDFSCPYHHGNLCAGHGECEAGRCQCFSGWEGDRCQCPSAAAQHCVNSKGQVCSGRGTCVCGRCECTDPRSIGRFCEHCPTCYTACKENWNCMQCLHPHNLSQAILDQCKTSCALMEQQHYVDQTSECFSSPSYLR
Test: human αVβ8 HTRF binding assay
Conditions: alternatively SPA-based assay
Assay Metric: IC50 (nM)

Please review the following examples before continuing.
Smiles Structure: COc1ncc([C@H](CC(=O)O)NC(=O)[C@H]2C[C@@H](CCc3ccc4c(n3)NCCC4)C2)cn1
Numeric Readout: 1400
//
Smiles Structure: O=C(O)C[C@H](NC(=O)[C@H]1C[C@H](CCc2ccc3c(n2)NCCC3)C1)c1cncnc1
Numeric Readout: 1100

1. Cc1cc(C)c(S(=O)(=O)N[C@@H](CNC(=O)C2CN(CCc3ccc4c(n3)NCCC4)C2)C(=O)O)c(C)c1
2. O=C(O)C[C@H](NC(=O)[C@H]1C[C@@H](CCc2ccc3c(n2)NCCC3)C1)c1cnc2ccccc2c1
Query block: Two entries are listed, 1 and 2 . Which one carries the higher IC50? Indicate your choice by writing its label.
Result block: 2
(2: 140 nM, 1: 9.4 nM)

###

Molecular target: human αVβ5 (Homo sapiens, UniProt P06756+P18084)
Sequence (P18084 24-719 limits assumed, one chain of several): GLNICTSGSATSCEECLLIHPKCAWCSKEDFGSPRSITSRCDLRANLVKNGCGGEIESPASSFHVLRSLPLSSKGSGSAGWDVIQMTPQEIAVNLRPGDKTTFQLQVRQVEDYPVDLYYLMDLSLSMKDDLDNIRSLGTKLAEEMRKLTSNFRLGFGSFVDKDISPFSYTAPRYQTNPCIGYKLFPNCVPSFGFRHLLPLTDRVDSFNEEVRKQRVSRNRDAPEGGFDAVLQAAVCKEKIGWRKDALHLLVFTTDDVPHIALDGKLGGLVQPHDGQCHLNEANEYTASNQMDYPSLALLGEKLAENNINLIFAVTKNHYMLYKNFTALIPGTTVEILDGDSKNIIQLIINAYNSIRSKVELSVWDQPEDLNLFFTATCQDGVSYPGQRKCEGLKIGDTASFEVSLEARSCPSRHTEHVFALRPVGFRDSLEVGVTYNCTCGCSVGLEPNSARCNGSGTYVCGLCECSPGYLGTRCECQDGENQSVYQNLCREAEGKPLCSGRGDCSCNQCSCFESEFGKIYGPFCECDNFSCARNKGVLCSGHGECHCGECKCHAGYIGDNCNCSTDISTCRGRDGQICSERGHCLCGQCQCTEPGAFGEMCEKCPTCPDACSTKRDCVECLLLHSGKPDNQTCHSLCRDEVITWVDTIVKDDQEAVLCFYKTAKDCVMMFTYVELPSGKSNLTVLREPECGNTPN
Test: human αVβ5 HTRF binding assay
Settings: alternatively SPA-based assay
pIC50: −log10 of the molar value.
Assay Metric: pIC50

// solved cases for pIC50 follow
Compound: O=C(N[C@@H](CNC(=O)C1(F)CN(CCc2ccc3c(n2)NCCC3)C1)C(=O)O)OCc1ccccc1
pIC50: 9.52

Compound: COc1ccc([C@H](CC(=O)O)NC(=O)[C@H]2C[C@H](CCc3ccc4c(n3)NCCC4)C2)cn1
pIC50: 9.33

a. COc1ncc([C@H](CC(=O)O)NC(=O)[C@H]2C[C@H](CCc3ccc4c(n3)NCCC4)C2)cn1
b. COc1ncc([C@H](CC(=O)O)N2CC(CCCCc3ccc4c(n3)NCCC4)C2=O)cn1 (stereo partly shown)
c. Cc1ncc([C@H](CC(=O)O)N2CC(CCCCc3ccc4c(n3)NCCC4)C2)cn1
d. Cc1cc(C)c(S(=O)(=O)N[C@@H](CNC(=O)[C@H]2C[C@H](CCc3ccc4c(n3)NCCC4)C2)C(=O)O)c(C)c1
e. Cc1ncc([C@H](CC(=O)O)NC(=O)[C@H]2C[C@@H](CCc3ccc4c(n3)NCCC4)C2)cn1
Query block: Endpoint returns the given compounds ordered by ascending pIC50. Give the labels in the order requested.
Result block: a, e, c, b, d
(a: 7.82, e: 8.06, c: 8.70, b: 9.49, d: 9.70)

###

Biological target: human αVβ6 (Homo sapiens, UniProt P06756+P18564)
Assay: human αVβ6 HTRF binding assay
Settings: alternatively SPA-based assay
pIC50: −log10 of the molar value.
Assay Metric: pIC50

Compound: O=C(O)CC(c1ccc(N2CCOCC2)nc1)C1CC2(CC(CCc3ccc4c(n3)NCCC4)C2)C1 (stereo not shown)
pIC50: 8.31

I. CN(C1CC2(C1)CN(CCc1ccc3c(n1)NCCC3)C2)[C@@H](CC(=O)O)c1cc(Cl)cc(Cl)c1
II. O=C(O)C[C@@H](c1cnc2ccccc2c1)N1CC(CCCCc2ccc3c(n2)NCCC3)C1=O (stereo partly shown) [Example 106]
Query block: Which has the higher pIC50, I or II ? Bench note: the answer is the label of the chosen record.
Result block: II

1. COc1ccc([C@H](CC(=O)O)NC2CN(CCCc3ccc4c(n3)NCCC4)C2)cc1F
2. Cc1cc(C)n(-c2cccc(C(CC(=O)O)N3CC4(CC(CCc5ccc6c(n5)NCCC6)C4)C3)c2)n1 (stereo not shown)
Query block: Given the listed items, does 1 or 2 have the lesser reported pIC50? State the label of the item chosen.
Result block: 2
(2: 8.55, 1: 8.96)

###

Target: human αVβ1 (Homo sapiens, UniProt P05556+P06756)
Sequence (P06756 31-992 limits assumed): as the sequence (P06756 31-992 limits assumed) above
Sequence (P05556 21-728 limits assumed): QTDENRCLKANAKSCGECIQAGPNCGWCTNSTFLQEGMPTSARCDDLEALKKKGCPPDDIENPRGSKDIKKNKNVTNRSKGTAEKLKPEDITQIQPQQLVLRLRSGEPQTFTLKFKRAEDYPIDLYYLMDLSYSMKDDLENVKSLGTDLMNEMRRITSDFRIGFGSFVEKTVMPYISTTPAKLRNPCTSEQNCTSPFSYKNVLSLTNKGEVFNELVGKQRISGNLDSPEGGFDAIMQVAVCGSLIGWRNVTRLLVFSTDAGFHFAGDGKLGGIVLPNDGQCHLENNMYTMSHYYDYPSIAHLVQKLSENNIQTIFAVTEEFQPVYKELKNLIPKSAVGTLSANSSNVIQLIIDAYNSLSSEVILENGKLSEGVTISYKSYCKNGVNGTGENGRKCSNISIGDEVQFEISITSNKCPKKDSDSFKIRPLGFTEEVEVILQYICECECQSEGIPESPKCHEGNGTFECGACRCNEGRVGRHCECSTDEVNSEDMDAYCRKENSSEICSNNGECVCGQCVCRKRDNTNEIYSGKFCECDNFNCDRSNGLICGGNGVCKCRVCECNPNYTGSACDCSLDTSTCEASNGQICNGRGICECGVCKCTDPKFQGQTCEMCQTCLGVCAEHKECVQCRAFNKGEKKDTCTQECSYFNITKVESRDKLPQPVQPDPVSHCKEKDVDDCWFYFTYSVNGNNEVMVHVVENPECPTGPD
Test: human αVβ1 HTRF binding assay
Conditions: alternatively SPA-based assay
pIC50: −log10 of the molar value.
Assay Metric: pIC50

Would you please look over these solved cases?
Compound: Cc1ncc([C@H](CC(=O)O)N2CC(CCCCc3ccc4c(n3)NCCC4)C2)cn1
Assay Metric: pIC50
Numeric Readout: 5.06

Compound: O=C(O)C[C@H](NC(=O)N1CC(CCc2ccc3c(n2)NCCC3)C1)c1cnc2ccccc2c1
Assay Metric: pIC50
Numeric Readout: 6.61

Compound: O=C(N[C@@H](CNC(=O)C1(F)CN(CCc2ccc3c(n2)NCCC3)C1)C(=O)O)OCc1ccccc1
Assay Metric: pIC50
Numeric Readout: 7.55

Compound: O=C(N[C@@H](CNC(=O)C1CC(CCc2ccc3c(n2)NCCC3)C1)C(=O)O)OCc1ccccc1 (stereo partly drawn)
Assay Metric: pIC50
Numeric Readout: 8.12

Compound: O=C(O)C[C@H](NC(=O)N1CC(CCc2ccc3c(n2)NCCC3)C1)c1ccc2c(c1)OCC2
Assay Metric: pIC50
Numeric Readout: 6.15

Compound: COc1ncc([C@H](CC(=O)O)N2CC(CCCCc3ccc4c(n3)NCCC4)C2=O)cn1 (stereo partly drawn)
Assay Metric: pIC50
Numeric Readout: 5.91

I. Cc1cc(C)c(S(=O)(=O)N[C@@H](CNC(=O)[C@H]2C[C@H](CCc3ccc4c(n3)NCCC4)C2)C(=O)O)c(C)c1
II. COc1ccc([C@H](CC(=O)O)NC(=O)[C@H]2C[C@H](CCc3ccc4c(n3)NCCC4)C2)cn1
III. O=C(O)C[C@H](NC(=O)[C@H]1C[C@H](CCc2ccc3c(n2)NCCC3)C1)c1cncnc1
IV. COc1ncc([C@H](CC(=O)O)NC(=O)[C@H]2C[C@H](CCc3ccc4c(n3)NCCC4)C2)cn1
Query block: Order each entry by recorded pIC50, climbing from the minimum. Give me the labels in the order the question wants.
Result block: III, IV, II, I

a. O=C(O)C[C@@H](c1ccc2c(c1)OCC2)N1CC(CCCCc2ccc3c(n2)NCCC3)C1=O (stereo partly drawn)
b. COc1ccc([C@H](CC(=O)O)NC(=O)[C@H]2C[C@H](CCc3ccc4c(n3)NCCC4)C2)cc1F
c. Cc1cc(C)c(S(=O)(=O)N[C@@H](CNC(=O)C2(F)CN(CCc3ccc4c(n3)NCCC4)C2)C(=O)O)c(C)c1
Query block: List these items ordered by pIC50, big to small. As an answer, provide the labels arranged in the order called for.
Result block: b, c, a

a. O=C(O)C[C@@H](c1cnc2ccccc2c1)N1CC(CCCCc2ccc3c(n2)NCCC3)C1=O (stereo partly drawn)
b. COc1ccc([C@H](CC(=O)O)NC(=O)C2CC(CCc3ccc4c(n3)NCCC4)C2)cn1 (stereo partly drawn)
Query block: Lab log: flag the item ( a or b ) with the smaller pIC50 figure. Please identify the chosen entry by its label.
Result block: a
